As shown below, each of these compounds has a reported EC50 value.
Subject Of Test: 5-HT2B receptor (Homo sapiens)
Experiment Notes: cell-based
Condition Label: agonist, Ca2+ flux, HEK293

-- ask // fetch EC50 given entry CCN(CC)C(=O)[C@@H]1C=C2c3cccc4[nH]cc(c34)C[C@H]2N(Cc2cccnc2)C1 [Compound 55]
-- reply > 100 µM

-- ask Fill in reported EC50 for this entry: CCN(CC)C(=O)[C@@H]1C=C2c3cccc4[nH]cc(c34)C[C@H]2N(Cc2ccccc2)C1 [Compound 82]
-- reply > 10 µM

-- ask Tell me EC50 reported for CCN(CC)C(=O)[C@@H]1C=C2c3cccc4[nH]cc(c34)C[C@H]2N(Cc2cccc(O)c2)C1 [Compound 62]
-- reply > 100 µM

-- ask State its EC50 for this compound: CCN(CC)C(=O)[C@@H]1C=C2c3cccc4[nH]cc(c34)C[C@H]2N(Cc2ccon2)C1 [Compound 70]
-- reply 0.449 µM

-- ask Report EC50 for CCN(CC)C(=O)[C@@H]1C=C2c3cccc4[nH]cc(c34)C[C@H]2N(Cc2cccc(C#N)c2)C1 [Compound 76]
-- reply > 10 µM

-- ask Supply reported EC50 belonging to this compound: CC[C@@H](C)NC(=O)[C@@H]1C=C2c3cccc4[nH]cc(c34)C[C@H]2N(Cc2ccccc2)C1 [Compound 88]
-- reply > 10 µM

-- ask Supply EC50 value. Item: CCN(CC)C(=O)[C@H]1C=C2c3cccc4[nH]cc(c34)C[C@H]2N(CC2CCCC2)C1 [Compound 90a]
-- reply > 10 µM

-- ask Using known records, supply EC50 for CCN(CC)C(=O)[C@@H]1C=C2c3cccc4[nH]cc(c34)C[C@H]2N(Cc2ccc3ccccc3c2)C1 [Compound 100]
-- reply > 10 µM

-- ask Find the measured EC50 of CCN(CC)C(=O)[C@@H]1C=C2c3cccc4[nH]cc(c34)C[C@H]2N(Cc2ccc(F)c(OC)c2)C1 [Compound 60] and report it.
-- reply > 100 µM

-- ask Give the reported EC50 for this compound. CCCN(CC)C(=O)[C@@H]1C=C2c3cccc4[nH]cc(c34)C[C@H]2N(Cc2ccccc2)C1 [Compound 86]
-- reply 1.28 µM

-- ask Give the value of EC50 reported for the following: CCN(CC)C(=O)[C@@H]1C=C2c3cccc4[nH]cc(c34)C[C@H]2N(Cc2ccc(C)cc2)C1 [Compound 97]
-- reply 0.0166 µM

-- ask Fill in EC50 for record CCN(CC)C(=O)[C@@H]1C=C2c3cccc4[nH]cc(c34)C[C@H]2N(Cc2cccc(F)c2)C1 [Compound 52]
-- reply > 10 µM

---

Subject Of Test: 5-HT2B receptor (Homo sapiens, UniProt P41595)
Construct: expressed in transfected cells; host or cells: HEK293, stably transfected
Sequence (P41595 whole entry): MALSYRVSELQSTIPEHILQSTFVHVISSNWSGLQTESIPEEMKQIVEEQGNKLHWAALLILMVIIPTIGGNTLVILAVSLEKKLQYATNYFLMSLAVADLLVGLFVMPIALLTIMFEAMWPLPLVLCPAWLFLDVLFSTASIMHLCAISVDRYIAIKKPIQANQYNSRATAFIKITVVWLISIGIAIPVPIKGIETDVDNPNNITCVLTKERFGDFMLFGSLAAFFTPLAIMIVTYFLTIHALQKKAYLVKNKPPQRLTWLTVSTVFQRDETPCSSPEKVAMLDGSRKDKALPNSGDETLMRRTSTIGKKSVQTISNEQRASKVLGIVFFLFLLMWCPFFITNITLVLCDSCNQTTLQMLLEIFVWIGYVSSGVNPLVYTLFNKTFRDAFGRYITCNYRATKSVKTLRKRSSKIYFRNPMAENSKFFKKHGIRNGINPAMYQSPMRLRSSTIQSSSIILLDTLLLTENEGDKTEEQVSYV
Experiment Notes: cell-based
Format: cell-based
Condition Label: HEK293, agonist, Ca2+ flux, HEK293, max dose; read-out: 5-HT2B % Act @ Max Dose
Entry flag: class 1 if Emax reaches 30%; class 0 if it does not.

Study these solved cases before continuing.
-- ask Hi team, for CCN(CC)C(=O)[C@@H]1C=C2c3cccc4[nH]cc(c34)C[C@H]2N(CCCF)C1 [Compound 2] , is the recorded Emax at or above 30%?
-- reply class 1

-- ask Please tell me: is the compound CC[C@@H](C)NC(=O)[C@@H]1C=C2c3cccc4[nH]cc(c34)C[C@H]2N(C)C1 [Int8] at or over 30% in terms of Emax?
-- reply class 0

-- ask Check if Emax >= 30% (inclusive). Item: CCC[C@@H](C)NC(=O)[C@H]1C=C2c3cccc4[nH]cc(c34)C[C@H]2N(C)C1 [Int17a]
-- reply class 0

Next:
-- ask # bool: Emax of CCN(CC)C(=O)[C@@H]1C=C2c3cccc4[nH]cc(c34)C[C@H]2N(Cc2cccnc2)C1 [Compound 55] >= 30%
-- reply class 0

-- ask Kindly determine if Emax recorded for CCN(CC)C(=O)[C@@H]1C=C2c3cccc4[nH]cc(c34)C[C@H]2N(Cc2ccc(F)c(F)c2)C1 [Compound 54] is above or exactly 30%.
-- reply class 0

-- ask Hi, just wondering whether CCC(CC)NC(=O)[C@H]1C=C2c3cccc4[nH]cc(c34)C[C@H]2N(C)C1 [Int14a] shows Emax of 30% or higher.
-- reply class 0

-- ask Form field: Emax at least 30%? Entry: CCN(CC)C(=O)[C@@H]1C=C2c3cccc4[nH]cc(c34)C[C@H]2N(CCc2cccc(OC)c2)C1 [Compound 20]
-- reply class 0

-- ask Reported Emax at or above 30%? CCCN1C[C@H](C(=O)N(CC)CC)C=C2c3cccc4[nH]c(Br)c(c34)C[C@H]21 [Compound 9]
-- reply class 1

---

Subject Of Test: 5-HT2B receptor (Homo sapiens)
Construct: expressed in transfected cells; host or cells: HEK293, stably transfected
Experiment Notes: cell-based
Type: cell-based
Condition Label: HEK293, agonist, Ca2+ flux, HEK293, max dose; read-out: 5-HT2B % Act @ Max Dose
Endpoint Label: Emax (%)
Express the result in % but write the number alone.

Guide cases for Emax, answers given:
-- ask Given CCN(CC)C(=O)[C@@H]1C=C2c3cccc4[nH]cc(c34)C[C@H]2N(CC2CC2)C1 , respond with its Emax.
-- reply 91.8

-- ask Give reported Emax value for CCN(CC)C(=O)[C@@H]1C=C2c3cccc4c3C(CN4)C[C@H]2N(C)C1 (mixture of isomers)
-- reply 24.1

-- ask Kindly indicate its recorded Emax. Item: CCC[C@@H](C)NC(=O)[C@@H]1C=C2c3cccc4[nH]c(Br)c(c34)C[C@H]2N(C)C1
-- reply -0.31

Others:
-- ask Return the recorded Emax value; entry: CCCN(CC)C(=O)[C@@H]1C=C2c3cccc4[nH]cc(c34)C[C@H]2N(Cc2cccc(OC)c2)C1
-- reply 1.24

---

half-life (t1/2) values by entry
Experiment Notes: in vitro
Assay type: in vitro ADME, human
Condition Label: HLM 0.50 mg/mL, NADPH 1 mM, 1 μM compound, pH 7.4, 37° C., 60 min
The response must be a number in min with no trailing unit.

-- ask Give recorded half-life (t1/2). C=CCN1C[C@H](C(=O)N[C@H](C)CC)C=C2c3cccc4[nH]cc(c34)C[C@H]21
-- reply 7.9

-- ask Please supply the value of reported half-life (t1/2) for the item CCCN1C[C@H](C(=O)N[C@H](C)CC)C=C2c3cccc4[nH]cc(c34)C[C@H]21
-- reply 4.2

-- ask Look up and state reported half-life (t1/2) for CCN(CC)C(=O)[C@@H]1C=C2c3cccc4[nH]cc(c34)C[C@H]2N(CCCF)C1
-- reply 19.061

-- ask For the compound CCN(CC)C(=O)[C@@H]1C=C2c3cccc4[nH]cc(c34)C[C@H]2N(Cc2ccccn2)C1 , give its measured half-life (t1/2) value.
-- reply 23.8

---

Subject Of Test: 5-HT1A receptor (Homo sapiens, UniProt P08908)
Sequence (P08908 whole entry): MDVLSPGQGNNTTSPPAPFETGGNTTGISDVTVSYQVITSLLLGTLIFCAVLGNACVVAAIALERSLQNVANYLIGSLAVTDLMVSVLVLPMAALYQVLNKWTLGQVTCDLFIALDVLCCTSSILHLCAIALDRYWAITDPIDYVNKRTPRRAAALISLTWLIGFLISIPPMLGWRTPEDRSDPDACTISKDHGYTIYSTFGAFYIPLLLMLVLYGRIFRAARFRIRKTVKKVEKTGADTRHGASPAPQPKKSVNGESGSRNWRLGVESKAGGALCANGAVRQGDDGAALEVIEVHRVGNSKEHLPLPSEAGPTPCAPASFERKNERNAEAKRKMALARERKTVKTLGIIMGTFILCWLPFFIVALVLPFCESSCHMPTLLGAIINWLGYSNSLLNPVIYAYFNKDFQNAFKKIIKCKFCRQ
Experiment Notes: cell-based
Condition Label: agonist, Ca2+ flux, CHO cells with Gα15
pEC50: −log10 of the molar value.
The threshold is inclusive: pEC50 of exactly 5 counts as criterion met; values below receive criterion not met.

# count of solved cases: 4
-- ask Decide: pEC50 of CCCN(CC)C(=O)[C@@H]1C=C2c3cccc4[nH]cc(c34)C[C@H]2N(Cc2cccc(OC)c2)C1 >= 5?
-- reply criterion not met

-- ask Reported pEC50 reaches at least 5 for CCNC(=O)[C@@H]1C=C2c3cccc4[nH]cc(c34)C[C@H]2N(Cc2cccc(OC)c2)C1 ?
-- reply criterion met

-- ask Given CCN(CC)C(=O)[C@@H]1C=C2c3cccc4[nH]cc(c34)C[C@H]2N(Cc2cccc(C)c2)C1 , state whether its pEC50 is at least 5.
-- reply criterion not met

-- ask // inclusive: pEC50 at least 5? input: CCN(CC)C(=O)[C@@H]1C=C2c3cccc4[nH]cc(c34)C[C@H]2N(Cc2cccs2)C1
-- reply criterion met

Turning to the following molecule.
-- ask hey, is pEC50 for this one >= 5? CCN(CC)C(=O)[C@@H]1C=C2c3cccc4[nH]cc(c34)C[C@H]2N(Cc2cocn2)C1
-- reply criterion met

---

In this section, each of the compounds is paired with its reported Ki.
Subject Of Test: UniProt:P28223
Sequence (P28223 whole entry): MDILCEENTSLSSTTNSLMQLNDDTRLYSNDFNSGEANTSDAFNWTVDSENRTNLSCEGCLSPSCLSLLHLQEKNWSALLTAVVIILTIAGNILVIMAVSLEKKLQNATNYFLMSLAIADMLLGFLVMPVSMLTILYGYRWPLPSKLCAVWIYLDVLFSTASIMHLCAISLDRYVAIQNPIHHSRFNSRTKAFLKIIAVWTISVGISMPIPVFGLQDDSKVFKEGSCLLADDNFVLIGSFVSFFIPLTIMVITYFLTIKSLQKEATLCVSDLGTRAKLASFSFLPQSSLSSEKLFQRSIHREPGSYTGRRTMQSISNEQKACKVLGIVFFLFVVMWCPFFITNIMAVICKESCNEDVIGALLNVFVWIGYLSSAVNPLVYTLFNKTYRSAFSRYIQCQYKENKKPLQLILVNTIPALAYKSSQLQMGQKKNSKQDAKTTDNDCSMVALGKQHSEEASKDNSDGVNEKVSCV
Output spec: scalar in nM, unitless text.

-- ask Report Ki on UniProt:P28223 for this entry: CCN(C)C(=O)[C@H]1C=C2c3cccc4[nH]cc(c34)C[C@H]2N(CC2CCCC2)C1 [Compound 103a]
-- reply 511

-- ask Report value: Ki, system: UniProt:P28223, compound: [2H]C(c1cccc(OC)c1)N1C[C@H](C(=O)N(CC)CC)C=C2c3cccc4[nH]cc(c34)C[C@H]21 (some centres unmarked)
-- reply 3.99

-- ask Please respond with reported Ki (system UniProt:P28223) for CC[C@@H](C)NC(=O)[C@@H]1C=C2c3cccc4[nH]cc(c34)C[C@H]2N(Cc2ccccc2)C1 .
-- reply 3.1

-- ask Give Ki for this entry on UniProt:P28223: CCN(C)C(=O)[C@@H]1C=C2c3cccc4[nH]cc(c34)C[C@H]2N(CC2CCCC2)C1
-- reply 1.6

-- ask Print UniProt:P28223 Ki for CCN(CC)C(=O)[C@@H]1C=C2c3cccc4[nH]cc(c34)C[C@H]2N(Cc2cccs2)C1 .
-- reply 1.42

-- ask State, for UniProt:P28223, measured Ki of the compound listed here: CCN(CC)C(=O)[C@@H]1C=C2c3cccc4[nH]cc(c34)C[C@H]2N(CC2CCCC2)C1
-- reply 2.35

-- ask Please report the measured Ki for CCCN(CC)C(=O)[C@@H]1C=C2c3cccc4[nH]cc(c34)C[C@H]2N(Cc2cccc(OC)c2)C1 tested on UniProt:P28223.
-- reply 4.73
